- Test system: PA-TU-8902 (Pancreatic Carcinoma)
- assay-explanation: combination Emax (second highest fraction inhibited in the dose matrix, 72 h); higher = more inhibition; extreme values may be limits of the assay
// reported combination Emax for each item listed
Field format: numeric only.

Answered examples (2):
compound	combination Emax
CCN(CCO)CCCOc1ccc2c(Nc3cc(CC(=O)Nc4cccc(F)c4)[nH]n3)ncnc2c1 [AZD2811] + C=CCn1c(=O)c2cnc(Nc3ccc(N4CCN(C)CC4)cc3)nc2n1-c1cccc(C(C)(C)O)n1 [AZD1775] (first compound max 1 µM, partner max 1 µM)	0.222
CC(=O)c1c(C)c2cnc(Nc3ccc(N4CCNCC4)cn3)nc2n(C2CCCC2)c1=O [Palbociclib] + CN(CC[C@H](CSC1=CC=CC=C1)NC2=C(C=C(C=C2)S(=O)(=O)NC(=O)C3=CC=C(C=C3)N4CCC(CC4)[C@H](C5=CC=CC=C5C6=CC=C(C=C6)Cl)O)S(=O)(=O)C(F)(F)F)CCO [AZD4320] (first compound max 10 µM, 7x7, partner max 1 µM)	0.323

Turning to the following compound.
Exercise: Fill blank: measured combination Emax of the compound CN(C)CCCOc1ccc(-c2ccc3ncc4c(c3c2)n(C2CCOCC2)c(=O)n4C)cn1 [AZD0156] + O=C(c1cc(Cc2n[nH]c(=O)c3ccccc23)ccc1F)N1CCN(C(=O)C2CC2)CC1 [Olaparib] (first compound max 3 µM, partner max 3 µM) is ____.
Solution: 0.239
